Data origin: patent US20210130436A1

measurement target: T1, CD28 endogenously expressed on Jurkat/IL2 reporter cells (human, UniProt P10747 19-220)
T1 construct: also called Jurkats (CD28)
assay info: flow cytometry, Jurkat cells (CD28)
So I've got a bunch of binders here, and I need their MFI at 33.3 nM values.
One number for each entry, in MFI.

Guide cases for MFI at 33.3 nM, answers given:
[
  {
    "binder": "variant CD80 IgV-Fc E35D/M47L/V68M/L85Q (Fc fusion, not shown: small tags and cut ends; a dimerising Fc or GST) VIHVTKEVKEVATLSCGHNVSVEELAQTRIYWQKDKKMVLTMMSGDLNIWPEYKNRTIFDITNNLSIMILALRPSDEGTYECVVQKYEKDAFKREHLAEVTLSVKAD",
    "MFI at 33.3 nM / MFI": 159
  },
  {
    "binder": "variant CD80 IgV-Fc E35D/K89N (Fc fusion, not shown: small tags and cut ends; a dimerising Fc or GST) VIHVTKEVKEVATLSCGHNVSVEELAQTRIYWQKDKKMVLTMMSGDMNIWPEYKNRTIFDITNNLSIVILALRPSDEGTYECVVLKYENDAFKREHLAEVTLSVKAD",
    "MFI at 33.3 nM / MFI": 236
  },
  {
    "binder": "variant CD80 IgV-Fc V68M/L85Q (Fc fusion, not shown: small tags and cut ends; a dimerising Fc or GST) VIHVTKEVKEVATLSCGHNVSVEELAQTRIYWQKEKKMVLTMMSGDMNIWPEYKNRTIFDITNNLSIMILALRPSDEGTYECVVQKYEKDAFKREHLAEVTLSVKAD",
    "MFI at 33.3 nM / MFI": 91.7
  }
]

# batch size: 5; output MFI at 33.3 nM per entry
1. variant CD80 IgV-Fc V68M (Fc fusion, not shown: small tags and cut ends; a dimerising Fc or GST) VIHVTKEVKEVATLSCGHNVSVEELAQTRIYWQKEKKMVLTMMSGDMNIWPEYKNRTIFDITNNLSIMILALRPSDEGTYECVVLKYEKDAFKREHLAEVTLSVKAD
2. variant CD80 IgV-Fc E35D/M47L (Fc fusion, not shown: small tags and cut ends; a dimerising Fc or GST) VIHVTKEVKEVATLSCGHNVSVEELAQTRIYWQKDKKMVLTMMSGDLNIWPEYKNRTIFDITNNLSIVILALRPSDEGTYECVVLKYEKDAFKREHLAEVTLSVKAD
3. variant CD80 IgV-Fc E35D/N48K (Fc fusion, not shown: small tags and cut ends; a dimerising Fc or GST) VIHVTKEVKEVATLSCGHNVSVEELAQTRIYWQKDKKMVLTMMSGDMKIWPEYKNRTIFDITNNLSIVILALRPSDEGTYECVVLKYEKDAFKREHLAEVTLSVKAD
4. variant CD80 IgV-Fc E35D (Fc fusion, not shown: small tags and cut ends; a dimerising Fc or GST) VIHVTKEVKEVATLSCGHNVSVEELAQTRIYWQKDKKMVLTMMSGDMNIWPEYKNRTIFDITNNLSIVILALRPSDEGTYECVVLKYEKDAFKREHLAEVTLSVKAD
5. variant CD80 IgV-Fc M47L/V68M/L85Q (Fc fusion, not shown: small tags and cut ends; a dimerising Fc or GST) VIHVTKEVKEVATLSCGHNVSVEELAQTRIYWQKEKKMVLTMMSGDLNIWPEYKNRTIFDITNNLSIMILALRPSDEGTYECVVQKYEKDAFKREHLAEVTLSVKAD

OUT:
1: 37.9; 2: 411; 3: 194; 4: 134; 5: 60.9
